TEST TARGET: Recombinant human CYP51A1 (lanosterol-14a-demethylase) (Homo sapiens (Human), UniProt Q16850)
Sequence (Q16850 whole entry): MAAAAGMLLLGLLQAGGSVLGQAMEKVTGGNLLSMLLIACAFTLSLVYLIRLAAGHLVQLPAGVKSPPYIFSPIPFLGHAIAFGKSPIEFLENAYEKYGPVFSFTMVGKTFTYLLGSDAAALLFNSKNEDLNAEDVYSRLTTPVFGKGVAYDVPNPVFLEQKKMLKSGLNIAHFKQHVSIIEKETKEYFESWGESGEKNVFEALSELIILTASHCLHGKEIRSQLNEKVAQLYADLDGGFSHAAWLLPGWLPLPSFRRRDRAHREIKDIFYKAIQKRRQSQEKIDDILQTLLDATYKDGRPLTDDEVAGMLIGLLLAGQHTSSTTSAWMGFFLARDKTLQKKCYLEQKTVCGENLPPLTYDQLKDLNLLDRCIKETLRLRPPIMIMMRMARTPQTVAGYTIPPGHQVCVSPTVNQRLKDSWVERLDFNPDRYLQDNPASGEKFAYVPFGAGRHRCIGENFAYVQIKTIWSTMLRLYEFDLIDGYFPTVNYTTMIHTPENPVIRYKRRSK
PROTOCOL NOTES: Inhibition of CYP51A1, fluorescent substrate BOMCC
TEST CONDITIONS: recombinant human CYP51A1 coexpressed with CYP reductase in bacterial membranes, 8-point concentration-response, read-out: CYP51 IC50
Excerpt: Method: Recombinant human CYP51A1 (lanosterol-14a-demethylase) enzyme was coexpressed with CYP reductase in bacterial membranes and the fluorescent substrate BOMCC (a nonnatural substrate that causes increases in fluorescence upon CYP51A1-dependent demethylation) was used to obtain 8-point dose concentration-response curves for each compound.
MEASUREMENT NAME: IC50

Observe how each entry below is paired with its result.
COMPOUND | MEASUREMENT NAME | OBSERVED VALUE
CCC(=O)N(CCc1ccc(C(F)(F)F)nc1)CC(O)c1cccnn1 (stereo not shown) | IC50 | > 1 µM
O=C(Cc1ccc(C(F)(F)F)nc1)N(CC(O)c1cccnn1)C1CCC1 (single isomer, unassigned) [compound 61] | IC50 | 0.1 to 1 µM
COC(=O)N(CCc1ccc(C(F)(F)F)nc1)CC(O)c1cccnc1 (stereo not shown) | IC50 | > 1 µM

The value of IC50 measured for the compound CCCN(CC(O)c1cccnc1)C(=O)Cc1ccc(F)c(F)c1 (stereo not shown) turned out to be 0.1 to 1 µM

* * *

TEST TARGET: Recombinant human CYP51A1 (lanosterol-14a-demethylase) (Homo sapiens (Human))
PROTOCOL NOTES: Inhibition of CYP51A1, fluorescent substrate BOMCC
TEST CONDITIONS: recombinant human CYP51A1 coexpressed with CYP reductase in bacterial membranes, 8-point concentration-response, read-out: CYP51 IC50
pIC50: −log10 of the molar value.
MEASUREMENT NAME: pIC50

Observe how each entry below is paired with its result.
COMPOUND | pIC50
CCCN(C[C@@H](O)c1cccnc1)C(=O)Cc1cccc2ncsc12 | < 6.00
CCCN(C[C@@H](O)c1cccnc1)C(=O)C(C)c1ccc(C(F)(F)F)nc1 (some centres unmarked) | < 6.00
CCCN(C[C@@H](O)c1cccnc1)C(=O)Cc1ccc(C)c(C)c1 | 6.00 to 7.00

The value of pIC50 measured for the compound CCCN(CC(O)c1cccnn1)C(=O)Cc1ccc(C(F)(F)F)nc1 (centres unmarked) [compound 32] turned out to be 6.00 to 7.00

The value of pIC50 measured for the compound `CN1CCC(CN(C[C@@H](O)c2cccnc2)C(=O)Cc2ccc(C(F)(F)F)nc2)CC1` turned out to be < 6.00

The value of pIC50 measured for the compound `CCCN(C[C@@H](O)c1cccnc1)C(=O)Cc1ccc(C(F)F)c(F)c1` turned out to be ≥ 7.00

The value of pIC50 measured for the compound `CCCN(C[C@@H](O)c1cccnc1)C(=O)C1Cc2cc(F)c(F)cc2C1` turned out to be 6.00 to 7.00

The value of pIC50 measured for the compound `O=C(Cc1ccc(Cl)c(Cl)c1)N(C[C@@H](O)c1cccnc1)C1CC1` turned out to be 6.00 to 7.00

The value of pIC50 measured for the compound CCCN(CC(O)c1cnccn1)C(=O)C1Cc2cc(Cl)c(Cl)cc2C1 (single isomer, unassigned) [compound 41] turned out to be < 6.00

* * *

TEST TARGET: Recombinant human CYP51A1 (lanosterol-14a-demethylase) (Homo sapiens (Human))
PROTOCOL NOTES: Inhibition of CYP51A1, fluorescent substrate BOMCC
TEST CONDITIONS: recombinant human CYP51A1 coexpressed with CYP reductase in bacterial membranes, 8-point concentration-response, read-out: CYP51 IC50
Description: Method: Recombinant human CYP51A1 (lanosterol-14a-demethylase) enzyme was coexpressed with CYP reductase in bacterial membranes and the fluorescent substrate BOMCC (a nonnatural substrate that causes increases in fluorescence upon CYP51A1-dependent demethylation) was used to obtain 8-point dose concentration-response curves for each compound.
MEASUREMENT NAME: IC50

The value of IC50 measured for the compound CCCN(C(=O)Cc1ccc(Cl)c(Cl)c1)C(CO)c1ccc(=O)n(C)c1 (stereo not drawn) turned out to be > 1 µM

The value of IC50 measured for the compound CCCN(CC(O)c1cncc(F)c1)C(=O)Cc1ccc(C(F)(F)F)nc1 (stereo not drawn) turned out to be 0.1 to 1 µM

The value of IC50 measured for the compound CCCN(CC(O)c1cccnc1)C(=O)Cc1ccc(Cl)c(Cl)c1 (stereo not drawn) turned out to be ≤ 0.1 µM

The value of IC50 measured for the compound CCCN(CC(O)c1cccnn1)C(=O)Cc1ccc(C(F)(F)F)nc1 (single isomer, unassigned) [compound 69] turned out to be ≤ 0.1 µM

The value of IC50 measured for the compound CCC(=O)N(C[C@@H](O)c1cccnc1)C1Cc2cnc(C(F)(F)F)cc2C1 (stereo partly drawn) turned out to be > 1 µM

The value of IC50 measured for the compound NCCCCCN(CC(O)c1cccnc1)C(=O)Cc1ccc(Cl)c(Cl)c1 (stereo not drawn) turned out to be > 1 µM

The value of IC50 measured for the compound CCCN(CC(O)c1cccnn1)C(=O)Cc1ccc(C#N)c(Cl)c1 (single isomer, unassigned) [compound 53] turned out to be 0.1 to 1 µM

The value of IC50 measured for the compound CCCN(CC(O)c1cncc(C(C)=O)c1)C(=O)Cc1ccc(C(F)(F)F)nc1 (stereo not drawn) turned out to be > 1 µM

The value of IC50 measured for the compound `CCCN(C[C@@H](O)c1cccnc1)C(=O)Cc1ccc(C)c(Cl)c1` turned out to be ≤ 0.1 µM

The value of IC50 measured for the compound `O=C(Cc1ccc(OC(F)(F)F)cn1)N(CC1COC1)C[C@@H](O)c1cccnc1` turned out to be 0.1 to 1 µM

The value of IC50 measured for the compound CCCN(CC(O)c1cnccc1OC)C(=O)Cc1ccc(Cl)c(Cl)c1 (stereo not drawn) turned out to be ≤ 0.1 µM

The value of IC50 measured for the compound CCCN(CC(O)c1cncc(C(C)(C)O)c1)C(=O)Cc1ccc(C(F)(F)F)nc1 (stereo not drawn) turned out to be > 1 µM

The value of IC50 measured for the compound `CCCN(C[C@@H](O)c1cccnc1)C(=O)Cc1ccc(C(F)(F)F)nn1` turned out to be 0.1 to 1 µM

The value of IC50 measured for the compound `CCCN(C[C@@H](O)c1cccnc1)C(=O)Cc1cncnc1` turned out to be > 1 µM

The value of IC50 measured for the compound `O=C(Cc1ccc(C(F)(F)F)nc1)N(CC1COC1)C[C@@H](O)c1cccnc1` turned out to be 0.1 to 1 µM

The value of IC50 measured for the compound `CC(C)(C)OC(=O)NCCCCCN(C[C@@H](O)c1cccnc1)C(=O)Cc1ccc(C(F)(F)F)nc1` turned out to be ≤ 0.1 µM

The value of IC50 measured for the compound `O=C(Cc1ccc(Cl)c(Cl)c1)N(C[C@@H](O)c1cccnc1)C1COC1` turned out to be 0.1 to 1 µM

The value of IC50 measured for the compound `CCCN(C[C@@H](O)c1cccnc1)C(=O)Cc1ccc(OC)c(Cl)c1` turned out to be 0.1 to 1 µM

The value of IC50 measured for the compound O=C(Cc1ccc(C(F)(F)F)nc1)N(CC(O)c1cccnn1)C1CCC1 (single isomer, unassigned) [compound 62] turned out to be > 1 µM

The value of IC50 measured for the compound `CCC(=O)N(C[C@H](O)c1cccnc1)C1Cc2cc(Cl)c(Cl)cc2C1` turned out to be ≤ 0.1 µM

The value of IC50 measured for the compound COC(=O)N(CCc1ccc2ccccc2c1)CC(O)c1cccnc1 (stereo not drawn) turned out to be 0.1 to 1 µM

* * *

TEST TARGET: Recombinant human CYP51A1 (lanosterol-14a-demethylase) (Homo sapiens (Human))
PROTOCOL NOTES: Inhibition of CYP51A1, fluorescent substrate BOMCC
TEST CONDITIONS: recombinant human CYP51A1 coexpressed with CYP reductase in bacterial membranes, 8-point concentration-response, read-out: CYP51 IC50
Quick reference for IC50 among some compounds

The value of IC50 measured for the compound `CCCN(C[C@@H](O)c1cccnc1)C(=O)Cc1ccc(C#N)c(F)c1` turned out to be ≤ 0.1 µM

The value of IC50 measured for the compound CC(C)(O)CN(CC(O)c1cccnc1)C(=O)Cc1ccc(Cl)c(Cl)c1 (centres unmarked) turned out to be > 1 µM

The value of IC50 measured for the compound `CCCN(C[C@@H](O)c1cccnc1)C(=O)Cc1ccc(C(F)(F)F)c(F)c1` turned out to be ≤ 0.1 µM

* * *

Quick reference for pIC50 among some molecules
TEST TARGET: Recombinant human CYP51A1 (lanosterol-14a-demethylase) (Homo sapiens (Human), UniProt Q16850)
PROTOCOL NOTES: Inhibition of CYP51A1, fluorescent substrate BOMCC
TEST CONDITIONS: recombinant human CYP51A1 coexpressed with CYP reductase in bacterial membranes, 8-point concentration-response, read-out: CYP51 IC50
pIC50: −log10 of the molar value.

Observe how each entry below is paired with its result.
MOLECULE | pIC50
CCCN(CC(O)c1cccnn1)C(=O)Cc1ccc(OC(F)(F)F)c(Cl)c1 (centres unmarked) | 6.00 to 7.00
CCCN(CC(O)c1cnccn1)C(=O)Cc1ccc(Cl)c(Cl)c1 (centres unmarked) | 6.00 to 7.00
CCCN(C[C@@H](O)c1cccnc1)C(=O)C1Cc2cc(Cl)c(Cl)cc2C1 | ≥ 7.00
CCCN(C[C@@H](O)c1cccnc1)C(=O)Cc1ccnc(C(F)(F)F)c1 | < 6.00
CCCN(CC(O)c1ccc(C(F)(F)F)nc1)C(=O)Cc1ccc(Cl)c(Cl)c1 (centres unmarked) | < 6.00
CCC(=O)N(CCc1ccc(Cl)c(Cl)c1)CC(O)c1cccnc1 (centres unmarked) | 6.00 to 7.00
CCCN(C[C@@H](O)c1cccnc1)C(=O)Cc1ccc(Cl)cn1 | < 6.00
COC(=O)N(CCc1ccc(C(F)(F)F)nc1)CC(O)c1cccnn1 (centres unmarked) | < 6.00

The value of pIC50 measured for the molecule CCCN(C[C@@H](O)c1cccnc1)C(=O)C1Cc2cc(Cl)c(C#N)cc2C1 (some centres unmarked) turned out to be ≥ 7.00

The value of pIC50 measured for the molecule CCCN(CC(O)c1cccnc1)C(=O)C(C)c1ccc(Cl)c(Cl)c1 (centres unmarked) turned out to be < 6.00

The value of pIC50 measured for the molecule CCCN(CC(O)c1cncc(F)c1)C(=O)Cc1ccc(Cl)c(Cl)c1 (centres unmarked) turned out to be 6.00 to 7.00

The value of pIC50 measured for the molecule CCCN(CC(O)c1ccc(=O)n(C)c1)C(=O)Cc1ccc(Cl)c(Cl)c1 (centres unmarked) turned out to be < 6.00

The value of pIC50 measured for the molecule `CCCN(C[C@@H](O)c1cccnc1)C(=O)c1nc2cc(Cl)c(Cl)cc2[nH]1` turned out to be < 6.00

The value of pIC50 measured for the molecule Cc1ccncc1C(O)CN(CC1COC1)C(=O)Cc1ccc(C(F)(F)F)nc1 (single isomer, unassigned) [compound 88] turned out to be ≥ 7.00
